Source of measurements: patent US12344623B2

- TEST_SYSTEM: human A1 receptor (Homo sapiens)
- Construct: expressed in transfected cells; host or cells: CHO
- Sequence (P30542 whole entry): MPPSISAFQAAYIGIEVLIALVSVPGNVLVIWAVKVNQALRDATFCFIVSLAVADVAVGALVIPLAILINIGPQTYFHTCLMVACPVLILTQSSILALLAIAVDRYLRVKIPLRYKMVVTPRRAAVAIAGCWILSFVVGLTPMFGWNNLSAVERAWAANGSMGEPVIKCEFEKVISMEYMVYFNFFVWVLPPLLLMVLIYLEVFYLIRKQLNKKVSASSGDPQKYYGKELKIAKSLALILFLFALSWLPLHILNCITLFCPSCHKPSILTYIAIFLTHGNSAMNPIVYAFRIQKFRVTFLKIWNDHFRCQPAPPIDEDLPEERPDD
- PROTOCOL_TEXT: Functional A1 receptor activity, recombinant CHO cells, cAMP (HTRF), forskolin, agonist CPA
- Assay type: cell-based
- EXPERIMENTAL_CONDITIONS: recombinant CHO cells, forskolin, agonist CPA; read-out: Functional A1 receptor activity, CHO, cAMP, IC50
- Experimental: The functional activities of human A2A, A2B, A1 and A3 receptors were determined by quantification of cAMP, being the second messenger for adenosine receptors. […] Cells were seeded into 384-well plates, forskolin, test compounds and agonists (CPA for A1- and IB-MECA for A3-receptor) were added. After 30 min incubation, HTRF reagents (cAMP dynamic 2, Cis Bio) were added and the cellular cAMP levels were determined using the ENVISION (Perkin Elmer) plate reader. […]
pIC50: −log10 of the molar value.
Listed molecules paired with reported pIC50
MEASURED_ATTRIBUTE: pIC50

[[record]]
molecule = "COc1ncc(C2=CCOCC2)c2sc(NC(=O)N3CCC4(CCCNC4)C3)nc12 (stereo not drawn)"
test_system = "human A1 receptor (Homo sapiens)"
measured_result = "< 6.00"

[[record]]
molecule = "COc1ncc(-c2ccc(=O)[nH]c2)c2sc(NC(=O)N3CCC4(CCOCC4)C3)nc12"
test_system = "human A1 receptor (Homo sapiens)"
measured_result = "< 6.00"

[[record]]
molecule = "COc1ncc(C2=CCC(OC)CC2)c2sc(NC(=O)N3CC[C@]4(CCCOC4)C3)nc12 (stereo partly drawn)"
test_system = "human A1 receptor (Homo sapiens)"
measured_result = "< 6.00"

[[record]]
molecule = "COCCOCCn1cc(-c2cnc(OC)c3nc(NC(=O)N4CCC5(CCOCC5)C4)sc23)cn1"
test_system = "human A1 receptor (Homo sapiens)"
measured_result = "> 6.00"

[[record]]
molecule = "COc1ncc(C2=CCOCC2)c2sc(NC(=O)N3CCC4(CCOC4)C3)nc12 (stereo not drawn)"
test_system = "human A1 receptor (Homo sapiens)"
measured_result = "> 6.00"

[[record]]
molecule = "COc1nc(F)c(-c2ccccc2)c2sc(NC(=O)N3CC[C@]4(CCCOC4)C3)nc12"
test_system = "human A1 receptor (Homo sapiens)"
measured_result = "> 6.00"

[[record]]
molecule = "COCCNc1ncc(C(=O)Nc2nc3c(OC)ncc(C4=CCOCC4)c3s2)s1"
test_system = "human A1 receptor (Homo sapiens)"
measured_result = "> 6.00"

[[record]]
molecule = "COCCNc1ncc(C(=O)Nc2nc3c(OC)ncc(C4CCOCC4)c3s2)s1"
test_system = "human A1 receptor (Homo sapiens)"
measured_result = "> 6.00"

[[record]]
molecule = "COc1nc(F)c(C2CCOCC2)c2sc(NC(=O)c3ccc(C(=O)N(C)C)cc3)nc12"
test_system = "human A1 receptor (Homo sapiens)"
measured_result = "< 6.00"

[[record]]
molecule = "COc1ncc(C2=CCOCC2)c2sc(NC(=O)N3CC[C@]4(CCCOC4)C3)nc12"
test_system = "human A1 receptor (Homo sapiens)"
measured_result = "> 6.00"

[[record]]
molecule = "COc1ncc([C@H]2COCCO2)c2sc(NC(=O)c3ccc(C(=O)O)cc3)nc12"
test_system = "human A1 receptor (Homo sapiens)"
measured_result = "< 6.00"

[[record]]
molecule = "COc1nc(F)c(-c2ccccc2)c2sc(NC(=O)N3CC[C@@]4(CCCOC4)C3)nc12"
test_system = "human A1 receptor (Homo sapiens)"
measured_result = "> 6.00"

[[record]]
molecule = "COc1ncc(C2=CCOCC2)c2sc(NC(=O)c3cnn(-c4ccccc4)c3)nc12"
test_system = "human A1 receptor (Homo sapiens)"
measured_result = "> 6.00"

[[record]]
molecule = "COc1ncc(C2COCCO2)c2sc(NC(=O)N3CCC4(CCOCC4)C3)nc12 (stereo not drawn)"
test_system = "human A1 receptor (Homo sapiens)"
measured_result = "< 6.00"

[[record]]
molecule = "COc1ncc(C2=CCOCC2)c2sc(NC(=O)c3ccc(C(=O)N(C)C)cc3)nc12"
test_system = "human A1 receptor (Homo sapiens)"
measured_result = "> 6.00"

[[record]]
molecule = "COc1nc(F)c(C2CCOCC2)c2sc(NC(=O)N3CCC4(CCOC4)C3)nc12 (stereo not drawn)"
test_system = "human A1 receptor (Homo sapiens)"
measured_result = "< 6.00"

[[record]]
molecule = "COc1ncc(C2=CC(=O)CC2)c2sc(NC(=O)N3CCC4(CCOCC4)C3)nc12"
test_system = "human A1 receptor (Homo sapiens)"
measured_result = "< 6.00"

[[record]]
molecule = "COc1ncc(C2=CCC(OC)CC2)c2sc(NC(=O)N3CC[C@@]4(CCCOC4)C3)nc12 (stereo partly drawn)"
test_system = "human A1 receptor (Homo sapiens)"
measured_result = "< 6.00"

[[record]]
molecule = "COc1ncc(C2=CCOC2)c2sc(NC(=O)c3c[nH]cn3)nc12"
test_system = "human A1 receptor (Homo sapiens)"
measured_result = "> 6.00"

[[record]]
molecule = "COc1nc(F)c(C2CCOCC2)c2sc(NC(=O)N3CC[C@@]4(CCOC4)C3)nc12"
test_system = "human A1 receptor (Homo sapiens)"
measured_result = "< 6.00"

[[record]]
molecule = "COc1cccc(-c2cnc(OC)c3nc(NC(=O)N4CCC5(CCOCC5)C4)sc23)c1"
test_system = "human A1 receptor (Homo sapiens)"
measured_result = "< 6.00"

[[record]]
molecule = "[2H]C([2H])([2H])Oc1ncc(C2=CCOCC2)c2sc(NC(=O)N3CC[C@@]4(CCCOC4)C3)nc12"
test_system = "human A1 receptor (Homo sapiens)"
measured_result = "< 6.00"

[[record]]
molecule = "COc1ncc(C2CCC(F)(F)CC2)c2sc(NC(=O)N3CCC4(CCOCC4)C3)nc12"
test_system = "human A1 receptor (Homo sapiens)"
measured_result = "> 6.00"

[[record]]
molecule = "COc1nc(F)c(-c2ccccc2)c2sc(NC(=O)c3c[nH]cn3)nc12"
test_system = "human A1 receptor (Homo sapiens)"
measured_result = "> 7.00"

[[record]]
molecule = "COc1ncc(C2=CCCCC2)c2sc(NC(=O)N3CCC4(CCOCC4)C3)nc12"
test_system = "human A1 receptor (Homo sapiens)"
measured_result = "> 6.00"

[[record]]
molecule = "COc1ncc(-c2cnn(CC3CCCCO3)c2)c2sc(NC(=O)N3CCC4(CCOCC4)C3)nc12 (stereo not drawn)"
test_system = "human A1 receptor (Homo sapiens)"
measured_result = "> 7.00"

[[record]]
molecule = "COc1ncc(C2CCCCC2)c2sc(NC(=O)N3CCC4(CCOCC4)C3)nc12"
test_system = "human A1 receptor (Homo sapiens)"
measured_result = "< 6.00"

[[record]]
molecule = "COc1ncc(C2=CCOCC2)c2sc(NC(=O)N3CC[C@@]4(CCCOC4)C3)nc12"
test_system = "human A1 receptor (Homo sapiens)"
measured_result = "< 6.00"

[[record]]
molecule = "COc1ncc(C2=CCOC2)c2sc(NC(=O)N3CCC4(CCOCC4)C3)nc12"
test_system = "human A1 receptor (Homo sapiens)"
measured_result = "< 6.00"

[[record]]
molecule = "COc1nc(F)c(C2CCOCC2)c2sc(NC(=O)N3CC[C@]4(CCOC4)C3)nc12"
test_system = "human A1 receptor (Homo sapiens)"
measured_result = "< 6.00"

[[record]]
molecule = "COc1ncc(-c2ccccc2)c2sc(NC(=O)N3CCC(C(=O)N(C)C)CC3)nc12"
test_system = "human A1 receptor (Homo sapiens)"
measured_result = "< 6.00"

[[record]]
molecule = "COc1nc(F)c(C2CCOCC2)c2sc(NC(=O)N3CC[C@]4(CCCOC4)C3)nc12"
test_system = "human A1 receptor (Homo sapiens)"
measured_result = "< 6.00"

[[record]]
molecule = "COc1ncc(C2=CCOCC2)c2sc(NC(=O)N3CCC4(CCNCC4)C3)nc12"
test_system = "human A1 receptor (Homo sapiens)"
measured_result = "< 6.00"

